TESTED TARGET: T1, human melanocortin-4 receptor (human, UniProt P32245 1-332)
T1 construct: whole, on cells; functional assay: HEK293-T-REx-MC4-R cells induced with 0.1 or 10 ng/mL doxycycline; also called hMC4-R; MC4-R
T1 sequence (P32245 whole entry): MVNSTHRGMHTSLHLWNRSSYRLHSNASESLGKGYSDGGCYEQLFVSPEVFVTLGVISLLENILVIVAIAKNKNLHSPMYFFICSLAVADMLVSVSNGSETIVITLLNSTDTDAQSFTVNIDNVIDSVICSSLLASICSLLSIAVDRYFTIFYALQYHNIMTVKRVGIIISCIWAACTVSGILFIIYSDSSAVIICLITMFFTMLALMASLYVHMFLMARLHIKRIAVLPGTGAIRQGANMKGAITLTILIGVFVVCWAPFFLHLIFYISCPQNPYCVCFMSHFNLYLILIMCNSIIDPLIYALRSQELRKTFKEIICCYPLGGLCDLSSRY
TEST METHOD NOTES: [I125]-NDP-α-MSH competition, hMC4-R HEK-293 membranes
Procedure: A competitive inhibition binding assay was performed for exemplified peptides according to the invention using membrane homogenates prepared from HEK-293 cells that express recombinant hMC4-R, hMC3-R, or hMC5-R, and from B-16 mouse melanoma cells (containing endogenous MC1-R). […] Filters were dried and counted in a gamma counter for bound radioactivity. […] Ki values for test peptides of the present invention were determined using Graph-Pad Prism® curve-fitting software.
Positions of bridges follow the written chain, without caps; N, C: chain ends. Non-standard residues stand in square brackets, D forms with d. dPhe(3-Cl) = N[C@H](Cc1cccc(Cl)c1)C(=O)O; dPhe(2-Cl) = N[C@H](Cc1ccccc1Cl)C(=O)O; dPhe(2-F) = N[C@H](Cc1ccccc1F)C(=O)O; Orn = NCCC[C@H](N)C(=O)O
Catalogue of binders with associated pKi
Lab note — pKi values are minus log10 of concentrations in M.

// solved cases for pKi follow
[
  {
    "BINDER": "Ac-REQ[dPhe(2-Cl)]RW[Orn]-NH2 (lactam 2-7, also called No. 34) [Ac-Arg-cyclo(Glu-Gln-D-Phe(2-Cl)-Arg-Trp-Orn)-NH2]",
    "pKi": 8.15
  },
  {
    "BINDER": "Ac-R[Orn]N[dPhe(2-F)]RWE-NH2 (lactam 2-7, also called No. 71) [Ac-Arg-cyclo(Orn-Asn-D-Phe(2-F)-Arg-Trp-Glu)-NH2]",
    "pKi": 8.05
  },
  {
    "BINDER": "Ac-RET[dPhe(3-Cl)]RW[Orn]-NH2 (lactam 2-7; SMILES CC(=O)N[C@@H](CCCNC(=N)N)C(=O)N[C@H]1CCC(=O)NCCC[C@@H](C(N)=O)NC(=O)[C@H](Cc2c[nH]c3ccccc23)NC(=O)[C@H](CCCNC(=N)N)NC(=O)[C@@H](Cc2cccc(Cl)c2)NC(=O)[C@H]([C@@H](C)O)NC1=O, also called No. 36) [Ac-Arg-cyclo(Glu-Thr-D-Phe(3-Cl)-Arg-Trp-Orn)-NH2]",
    "pKi": 8.22
  }
]

pKi reading for XDQXRWK (N-terminal Ac; D-Arg 1; D-Phe(2-F) 4; lactam Asp 2-Lys 7; C-terminal NH2, also called No. 82) [Ac-D-Arg-cyclo(Asp-Gln-D-Phe(2-F)-Arg-Trp-Lys)-NH2] : 8.00
